- ASSAY INFO: net positive charge
- Type: physicochemical
PROPERTY LABEL: Net (+) Charge (Table 1)

smiles_notation=NC[C@@H]1O[C@H](O[C@H]2[C@@H](O)[C@H](O[C@@H]3[C@@H](O)[C@H](N)C[C@H](N)[C@H]3O[C@H]3O[C@H](CN)[C@@H](O)[C@H](O)[C@H]3N)O[C@@H]2CO)[C@H](N)[C@@H](O)[C@@H]1O reported_value=+6
smiles_notation=N=C(N)NCCC[C@H](N)C(=O)NCCCNCCCNCCCCCNC(=O)[C@H](CC(N)=O)NC(=O)Cc1c[nH]c2cccc(O)c12 reported_value=+4
smiles_notation=NCCCN(CCCN)CCCNCCCCNCCCN(CCCN)CCCN reported_value=+8
smiles_notation=NC[C@H]1O[C@H](O[C@H]2[C@H](O)[C@@H](O[C@H]3O[C@H](CO)[C@@H](O)[C@H](N)[C@H]3O)[C@H](N)C[C@@H]2N)[C@H](N)[C@@H](O)[C@@H]1O reported_value=+5
smiles_notation=NCCNCCNCCNCCN reported_value=+5

Task item: Find the recorded Net (+) Charge (Table 1) belonging to NCCCCNCCCN and report it.
Reply: +3

Task item: Repeat for the following molecule: NCCNCCNCCN
Reply: +4

Task item: Now give it for C1CNCCNCCNCCNCCNCCN1 too.
Reply: +6
